Molecular target: D168A mutant of the HCV NS3/4A 1b protease enzyme (Hepatitis C virus genotype 1b, UniProt P26663, D1194A)
Construct: 10× stocks of NS3/4A protease enzyme from Bioenza (Mountain View, Calif.); purchased Bioenza (Mountain View, Calif.)
Experiment: HCV Protease FRET Assay (IC50), D168A mutant
Type: biochemical
Conditions: read-out: Inhibition, HCV D168A; D168A enzyme, FRET assay
Reported IC50 values follow for various compounds

compound	IC50
C=C[C@@H]1C[C@]1(NC(=O)[C@@H]1C[C@@H](Oc2cc(-c3ccccc3)nc3cc(OC)ccc23)CN1C(=O)[C@H](CNC(=O)C1(C#N)CC1)NC(=O)OC(C)(C)C)C(=O)NS(=O)(=O)c1ccccc1 [Compound I-11]	100 to 1000 nM

Ask: Using the record for C=C[C@@H]1C[C@]1(NC(=O)[C@@H]1C[C@@H](Oc2cc(-c3ccccc3)nc3cc(OC)ccc23)CN1C(=O)C1(NC(=O)OC(C)(C)C)CCNCC1)C(=O)NS(=O)(=O)c1ccccc1 [Compound I-24] , report its IC50.
Result: 1000 to 10000 nM

Ask: Let us now turn to C=CC(=O)NCC[C@H](NC(=O)OC(C)(C)C)C(=O)N1C[C@H](Oc2cc(-c3ccccc3)nc3cc(OC)ccc23)C[C@H]1C(=O)N[C@]1(C(=O)NS(=O)(=O)c2ccccc2)C[C@H]1C=C [Compound I-8]
Result: 10 to 100 nM
